System: WT Max(13-93) synthetic (M65Nle)
test-description: PBM 8-mer E-score (E-score (rank enrichment, -0.5 to 0.5)); higher = stronger preferential binding
In all, about 33,000 sequences were measured (“E-score (rank enrichment, -0.5 to 0.5)”: median about -0.0075, highest 2% from about 0.23 on). The sample as a whole holds a higher share of the highest values than the screen did.
measure-name: PBM 8-mer E-score
// return just the number, without any unit appended

Solved entries (count: 8):
>>> print(df.to_string())
   sequence_chain       measure_name  measured_value
0        ACCATCCA  PBM 8-mer E-score          0.0359
1        GTGAATCA  PBM 8-mer E-score          -0.115
2        GGCAAGAA  PBM 8-mer E-score           0.127
3        ATTTTCAC  PBM 8-mer E-score          -0.017
4        AGCTCTCA  PBM 8-mer E-score         -0.0708
5        CTTTTCAC  PBM 8-mer E-score           0.241
6        AAGGCAAG  PBM 8-mer E-score           0.149
7        ACGCGTGC  PBM 8-mer E-score           0.244

Inquiry: State the measured PBM 8-mer E-score (WT Max(13-93) synthetic (M65Nle)) of ATAAATTA
Reply text: 0.324

Inquiry: Report measured PBM 8-mer E-score on WT Max(13-93) synthetic (M65Nle); entry: ATTAAATA
Reply text: 0.174

Inquiry: Provide measured PBM 8-mer E-score on WT Max(13-93) synthetic (M65Nle) for TCCGGTCA please.
Reply text: -0.19

Inquiry: Using WT Max(13-93) synthetic (M65Nle) as the test system, report measured PBM 8-mer E-score of ACGCGTGG .
Reply text: 0.212

Inquiry: Please look at CTTTCCGC and tell me its recorded PBM 8-mer E-score on WT Max(13-93) synthetic (M65Nle).
Reply text: -0.00053

Inquiry: Check WT Max(13-93) synthetic (M65Nle) data and give PBM 8-mer E-score for CCGCGTGA .
Reply text: 0.172

====

Reported PBM 8-mer E-score values are given for each entry in this list.
System: WT Max(13-93) synthetic (M65Nle)
test-description: PBM 8-mer E-score (E-score (rank enrichment, -0.5 to 0.5)); higher = stronger preferential binding
Over roughly 33,000 sequences, “E-score (rank enrichment, -0.5 to 0.5)” has its median near -0.0075; the highest 2% begin near 0.23. The sample holds the highest values, similar sequences and a random draw of the others, so the mix is not that of the screen.
Enter the number alone.

# count of solved cases: 5
In [3]: df
Out[3]:
   sequence_chain                   target_of_assay  measured_value
0        GACGTGCC  WT Max(13-93) synthetic (M65Nle)         -0.0759
1        CCAGCCCA  WT Max(13-93) synthetic (M65Nle)          -0.176
2        ACTATTAA  WT Max(13-93) synthetic (M65Nle)           0.133
3        AGCGATGA  WT Max(13-93) synthetic (M65Nle)          -0.182
4        CATATTAA  WT Max(13-93) synthetic (M65Nle)           0.306

Inquiry: Give reported PBM 8-mer E-score value for CTTGATTA
Reply text: 0.12

Inquiry: Identify PBM 8-mer E-score associated with the sequence ACATGAGA
Reply text: 0.146

Source listed as the supplement of paper PMC12636033.
